Target: REV-ERBβ (Homo sapiens)
Construct: 6×Histag-REV-ERBα LBD (human; residues 381-579)
Sequence (Q14995 381-579): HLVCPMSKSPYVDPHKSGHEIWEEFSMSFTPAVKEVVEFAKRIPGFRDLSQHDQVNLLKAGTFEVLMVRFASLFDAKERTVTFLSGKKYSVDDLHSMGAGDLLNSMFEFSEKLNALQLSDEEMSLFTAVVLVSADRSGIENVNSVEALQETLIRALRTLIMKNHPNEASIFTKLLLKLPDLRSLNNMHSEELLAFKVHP
Assay: TR-FRET corepressor interaction assay (REV-ERBβ, FITC-SMRT peptide)
Conditions: Table 2, read-out: REVERBβ agonism (EC50 class, FRET assay)
pEC50: −log10 of the molar value.
MEASURED ENDPOINT: pEC50

- MOLECULE: "CC(C)Cn1cc(CCNS(=O)(=O)N(C)C)c2ccc(-c3ccccn3)cc21 [Compound 31]"
  EXPERIMENTAL TARGET: "REV-ERBβ (Homo sapiens)"
  MEASURED ENDPOINT: "pEC50"
  VAL: "< 5.52"

Problem: Return reported pEC50. Input molecule: CC(C)Cn1cc(CCNS(=O)(=O)N(C)C)c2ccccc21 [Compound 68]
Solution: < 5.52

Problem: Return reported pEC50. Input molecule: CC(C)Cn1cc(CCNS(=O)(=O)N(C)C)c2ccc(C(F)(F)F)cc21 [Example 105]
Solution: < 5.52

Problem: Return reported pEC50. Input molecule: CC(C)Cn1cc(CCNS(=O)(=O)N(C)C)c2ccc(C3CCCCC3)cc21 [Compound 16]
Solution: 5.52 to 6.30

Problem: Return reported pEC50. Input molecule: CC(C)Cn1cc(CCNS(=O)(=O)N(C)C)c2ccc(-c3ccncc3)nc21 [Example 203]
Solution: < 5.52

Problem: Return reported pEC50. Input molecule: CC(C)Cn1cc(CCNS(=O)(=O)C(C)C)c2cc(F)c(-c3ccncc3Cl)cc21 [Compound 263]
Solution: < 5.52

Problem: Return reported pEC50. Input molecule: CC(C)Cc1cn(CCNS(=O)(=O)N(C)C)c2ccc(-c3ccncc3)cc12 [Example 23]
Solution: 5.52 to 6.30

Problem: Return reported pEC50. Input molecule: CC(C)Cn1cc(CCNS(=O)(=O)N(C)C)c2ccc(-c3cccc4ccccc34)cc21 [Compound 39]
Solution: < 5.52

Problem: Return reported pEC50. Input molecule: CC(C)Cn1cc(CCNS(=O)(=O)N(C)C)c2ccc(-c3ccnc(N4CCOCC4)c3)cc21 [Compound 36]
Solution: < 5.52

Problem: Return reported pEC50. Input molecule: CC(C)Cn1cc([C@H](NS(=O)(=O)C2CC2)C(F)(F)F)c2ccc(C3CC3)cc21 [Example 310]
Solution: 5.52 to 6.30

Problem: Return reported pEC50. Input molecule: Cc1c(-c2ccncc2)ccc2c(CCNS(=O)(=O)N(C)C)cn(C(=O)C(C)C)c12 [Example 199]
Solution: 5.52 to 6.30

Problem: Return reported pEC50. Input molecule: CN(C)S(=O)(=O)N[C@@H](c1cn(CC(C)(C)C)c2cc(C3CC3)c(F)cc12)C(F)(F)F [Example 328]
Solution: < 5.52

Problem: Return reported pEC50. Input molecule: CC(C)Cn1cc([C@H](NS(=O)(=O)C2CC2)C(F)(F)F)c2ccc(C(C)C)cc21 [Example 333]
Solution: < 5.52

Problem: Return reported pEC50. Input molecule: CC(C)Cn1cc(CCNS(=O)(=O)CC(C)C)c2ccc(-c3ccncc3)cc21 [Compound 12]
Solution: < 5.52

Problem: Return reported pEC50. Input molecule: CN(C)S(=O)(=O)N[C@@H](c1cn(CC(C)(C)C)c2cc(-c3ccccc3C(F)(F)F)ccc12)C(F)(F)F [Example 323]
Solution: < 5.52

Problem: Return reported pEC50. Input molecule: CC(C)Cn1cc(CCNS(=O)(=O)N(C)C)c2ccc(-c3ccnc(C(F)(F)F)c3)cc21 [Compound 17]
Solution: < 5.52

Problem: Return reported pEC50. Input molecule: CC(C)(C)Cc1cn(CCNS(=O)(=O)C2CC2)c2ccc(-c3cccc(F)c3C(F)(F)F)cc12 [Example 227]
Solution: 5.52 to 6.30
